test system: HSkMC (human skeletal muscle cells); test: cytotoxicity call (relative viability < 0.9); details: 10 µM
In all, about 39,000 compounds went through this assay and about 1,500 (3.8%) were called active. This is one part of a sample in which actives are shown more often than they occur.
Permitted responses: true for active, false for inactive

Example entries and their recorded answers appear below.
O=C(CCCCCNC(=O)OCc1ccc(CO[C@@H]2C[C@H](C3CCCCC3)C=C(C(=O)N3CCN(Cc4ccc5c(c4)OCO5)CC3)O2)cc1)NO: false
CO[C@H]1CN(C)C(=O)c2cc(NC(=O)Nc3ccccc3F)ccc2OC[C@H](C)N(Cc2ccccc2C(=O)O)C[C@H]1C: false
CC=C(C)C(=O)O[C@H]1[C@H](OC(C)=O)[C@]2(CO)[C@H](O)C[C@]3(C)C(=CC[C@@H]4[C@@]5(C)CC[C@H](O[C@@H]6O[C@H](C(=O)O)[C@@H](O[C@@H]7O[C@H](CO)[C@@H](O)[C@H](O)[C@H]7O)[C@H](O)[C@H]6O[C@@H]6O[C@H](CO)[C@@H](O)[C@H](O)[C@H]6O)[C@](C)(CO)[C@@H]5CC[C@]43C)[C@@H]2CC1(C)C: true
C[C@H]1CN([C@@H](C)CO)C(=O)Cc2cc(NC(=O)Nc3ccccc3)ccc2O[C@@H]1CN(C)Cc1ccc(Cl)c(Cl)c1: true
C[C@@H]1CCCCO[C@@H](CN(C)Cc2ccc3c(c2)OCO3)[C@H](C)CN([C@H](C)CO)C(=O)c2cc(NC(=O)Nc3cccc4ccccc34)ccc2O1: true

-- ask Please state the recorded outcome for this compound: O=C(O)CCNC(=O)c1cccc([N+](=O)[O-])c1
-- reply false

-- ask And the next one, C[C@H](CO)N1C[C@H](C)[C@H](CN(C)Cc2ccc(Oc3ccccc3)cc2)Oc2ccc(NS(=O)(=O)c3ccccc3)cc2CC1=O ?
-- reply false

-- ask Try C[C@H](CO)N1C[C@H](C)[C@@H](CN(C)S(=O)(=O)c2ccc(F)cc2)Oc2ccc(NS(=O)(=O)c3ccc(F)cc3)cc2CC1=O next.
-- reply false

-- ask Next compound: C[C@@H]1CN([C@@H](C)CO)C(=O)Cc2cc(NC(=O)Nc3ccccc3)ccc2O[C@H]1CN(C)Cc1ccc(Cl)c(Cl)c1
-- reply false

-- ask Cool, now C[C@@H]1CCCCO[C@@H](CN(C)Cc2ccc(C(=O)O)cc2)[C@@H](C)CN([C@H](C)CO)C(=O)c2cc(NC(=O)CCC(F)(F)F)ccc2O1
-- reply false

-- ask Cool, now C=CCNC(=O)[C@H]1[C@@H]2C(=O)O[C@@H](c3ccccc3)[C@@H](c3ccccc3)N2[C@@H](c2ccc(O)cc2)[C@]12C(=O)Nc1ccc(C#Cc3ccc(OC)cc3)cc12
-- reply false

-- ask Same question, C[C@@H]1O[C@@H](O[C@@H]2[C@@H](O)[C@@H](O[C@@H]3O[C@@H](CO)[C@H](O)[C@H]3O)[C@H](OC(=O)[C@]34CCC(C)(C)C[C@H]3C3=CC[C@H]5[C@@]6(C)C[C@H](O)[C@H](O[C@@H]7O[C@@H](C)[C@H](O)[C@@H](O[C@@H]8OC[C@@H](O)[C@H](O)[C@H]8O[C@@H]8O[C@H](CO)[C@@H](O)[C@H](O)[C@H]8O)[C@H]7O)[C@@](C)(CO)[C@@H]6CC[C@@]5(C)[C@]3(C)C[C@H]4O)O[C@H]2C)[C@H](O)[C@H](O)[C@H]1O this time
-- reply false

-- ask Cool, now C[C@@H]1CCCCO[C@H](CN(C)Cc2ccc3c(c2)OCO3)[C@@H](C)CN([C@@H](C)CO)C(=O)c2cc(NC(=O)Nc3cccc4ccccc34)ccc2O1
-- reply false
